- system.tested: mammalian GABAARs (central benzodiazepine binding site)
- assay.notes: [3H]flunitrazepam displacement binding assay, rat cerebral cortex membranes
- measurement.setup: rat brain membrane preparations, 0.4 nM radioligand, 60 min at 4°C
measure: pKi
Give bare numbers, as −log10 of the molar value.

O=C1CN=C(c2ccccc2Cl)c2cc([N+](=O)[O-])ccc2N1 [CLZ, clonazepam, reference compound]: 9.09
C[C@@H]1N=C(c2ccccc2Cl)c2cc([N+](=O)[O-])ccc2NC1=O [MCLZ, meclonazepam]: 8.62
CCOC(=O)c1ncn2c1CN=C(c1ccccc1F)c1cc(C#C[Si](C)(C)C)ccc1-2 [XliHeII-048]: 5.80

Switching to the query record.
Q) Please respond with reported pKi (system mammalian GABAARs (central benzodiazepine binding site)) for CCOC(=O)c1ncn2c1CN=C(c1ccccc1)c1cc(C#C[Si](C)(C)C)ccc1-2 [Xhe-II-048] .
A) 5.60

----------
Hi there, I'd appreciate the recorded pIC50 for every entry that follows.
- System: adult male S. mansoni
- assay.notes: Adult schistosome mobility assay (inhibition of movement)
- Assay type: cell-based, Schistosoma mansoni
- measurement.setup: Schistosoma mansoni; adult male worms cultured in compound overnight, movement relative to DMSO control; inactive compounds tested at concentrations as high as 50 μM
Numbers only, as −log10 of the molar value.

Solved entries (count: 3):
CCOC(=O)c1ncn2c1[C@H](C)N=C(c1ccccc1F)c1cc(C#C[Si](C)(C)C)ccc1-2: 5.85
C[C@@H]1N=C(c2ccccc2)c2cc([N+](=O)[O-])ccc2NC1=O: 4.59
O=C1CN=C(c2ccccc2Cl)c2cc([N+](=O)[O-])ccc2N1 [CLZ, clonazepam, reference compound]: 5.72

Switching to the query record.
Q) Determine from records and report pIC50 for C[C@@H]1N=C(c2ccccc2F)c2cc([N+](=O)[O-])ccc2NC1=O [MYM-I-91A]
A) 5.14
